Some compounds, each annotated with its measured remaining activity at 20 µM.
target_or_system: recombinant human cGAS enzyme (hcGAS-ΔN, residues 147–522) (Homo sapiens, UniProt Q8N884)
Construct: N-terminally truncated human cGAS (hcGAS-ΔN, residues 147–522); 6xHis-SUMO (N, cleaved yes); made in house; host or cells: Escherichia coli BL21 (DE3)
Sequence (Q8N884 147-522, stated change not applied): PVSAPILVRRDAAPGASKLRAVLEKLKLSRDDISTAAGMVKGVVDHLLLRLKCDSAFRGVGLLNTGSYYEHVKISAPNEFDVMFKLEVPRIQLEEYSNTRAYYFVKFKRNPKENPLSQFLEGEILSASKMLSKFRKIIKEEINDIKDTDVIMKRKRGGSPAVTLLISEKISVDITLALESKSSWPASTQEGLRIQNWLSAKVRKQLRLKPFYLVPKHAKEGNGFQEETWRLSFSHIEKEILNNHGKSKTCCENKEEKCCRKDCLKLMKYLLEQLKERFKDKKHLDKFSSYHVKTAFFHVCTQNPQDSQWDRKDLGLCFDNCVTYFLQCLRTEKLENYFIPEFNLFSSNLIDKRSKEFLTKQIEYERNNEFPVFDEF
experimental_details: RNA-based fluorescent biosensor assay of cGAS activity (2',3'-cGAMP formation), in vitro screening
Type: biochemical
recorded_conditions: 20 μM; replicate values; read-out: Remaining activity (%), Fig. 1a source data
Square brackets hold non-standard residues; d marks the D form. Peptide text beside a SMILES is read from it.

[[record]]
compound = "CC(C)C[C@@H]1NC(=O)[C@H](CCCNC(=N)N)NC(=O)[C@H](C(C)C)NC(=O)[C@@H]2CCCN2C(=O)[C@@H](Cc2ccccc2)NC(=O)[C@H](C)NC(=O)[C@H](CCCNC(=N)N)NC(=O)[C@H](C(C)C)NC(=O)[C@@H]2CCCN2C(=O)[C@@H](C)NC1=O [XQ21, Cyclo (AfPVRLaPVR)] (cyclo(A[dF]PVRL[dA]PVR))"
result = "108%"

[[record]]
compound = "CC(C)C[C@@H]1NC(=O)[C@H](CCCNC(=N)N)NC(=O)[C@H](C(C)C)NC(=O)[C@@H]2CCCN2C(=O)[C@@H](Cc2c[nH]c3ccccc23)NC(=O)[C@H](CC(C)C)NC(=O)[C@H](CCCNC(=N)N)NC(=O)[C@H](C(C)C)NC(=O)[C@@H]2CCCN2C(=O)[C@@H](Cc2c[nH]c3ccccc23)NC1=O [XQ11, Cyclo (LwPVRLwPVR)] (cyclo(L[dW]PVRL[dW]PVR))"
result = "85.2%"


Consider the record given below.
Prompt line: Tell me remaining activity at 20 µM reported for CC(C)C[C@@H]1NC(=O)[C@H](CCCNC(=N)N)NC(=O)[C@H]([C@@H](C)O)NC(=O)[C@@H]2CCCN2C(=O)[C@@H](Cc2ccccc2)NC(=O)[C@H](CC(C)C)NC(=O)[C@H](CCCNC(=N)N)NC(=O)[C@H](C)NC(=O)[C@@H]2CCCN2C(=O)[C@@H](Cc2ccccc2)NC1=O [XQ36, Cyclo (LfPARLfPTR)] (cyclo(ARL[dF]PTRL[dF]P))
Response line: 89.5%

====

Some compounds, each annotated with its measured inhibition at 20 µM.
target_or_system: recombinant human cGAS enzyme (hcGAS-ΔN, residues 147–522) (Homo sapiens, UniProt Q8N884)
Construct: N-terminally truncated human cGAS (hcGAS-ΔN, residues 147–522); 6xHis-SUMO (N, cleaved yes); made in house; host or cells: Escherichia coli BL21 (DE3)
experimental_details: RNA-based fluorescent biosensor assay of cGAS activity (2',3'-cGAMP formation), in vitro screening
Type: biochemical
recorded_conditions: peptides screened at 20 μM; Supplementary Table 1 / Fig. S5b; read-out: Inhibition %
Square brackets hold non-standard residues; d marks the D form. Peptide text beside a SMILES is read from it.
Dear colleague, please return just the value in %, with no unit written.

Consider the following illustrative entries.
[[record]]
compound = "CC(C)C[C@@H]1NC(=O)[C@H](CCCNC(=N)N)NC(=O)[C@H]([C@@H](C)O)NC(=O)[C@@H]2CCCN2C(=O)[C@@H](Cc2ccccc2)NC(=O)[C@H](CC(C)C)NC(=O)[C@H](CCCNC(=N)N)NC(=O)[C@H]([C@@H](C)O)NC(=O)[C@H](C)NC(=O)[C@@H](Cc2ccccc2)NC1=O [XQ35, Cyclo (LfATRLfPTR)] (cyclo(ATRL[dF]PTRL[dF]))"
reported_metric = "inhibition at 20 µM"
unit_of_measure = "%"
result_number = 0

[[record]]
compound = "CC(C)[C@@H]1NC(=O)[C@@H]2CCCN2C(=O)[C@@H](C)NC(=O)[C@H](C)NC(=O)[C@H](CCCNC(=N)N)NC(=O)[C@H](C(C)C)NC(=O)[C@@H]2CCCN2C(=O)[C@@H](Cc2ccccc2)NC(=O)[C@H](C)NC(=O)[C@H](CCCNC(=N)N)NC1=O [XQ22, Cyclo (AaPVRAfPVR)] (cyclo(A[dA]PVRA[dF]PVR))"
reported_metric = "inhibition at 20 µM"
unit_of_measure = "%"
result_number = 0


Prompt line: # return inhibition at 20 µM for CC(C)C[C@@H]1NC(=O)[C@H](CCCNC(=N)N)NC(=O)[C@H](C(C)C)NC(=O)[C@H](CC(=O)O)NC(=O)[C@@H]2CCCN2C(=O)[C@@H](Cc2ccccc2)NC(=O)[C@H](CC(C)C)NC(=O)[C@H]([C@@H](C)O)NC(=O)[C@@H]2CCCN2C(=O)[C@@H](Cc2ccccc2)NC1=O [XQ66, Cyclo (LfPTLfPDVR)] (cyclo(DVRL[dF]PTL[dF]P)) , test system: recombinant human cGAS enzyme (hcGAS-ΔN, residues 147–522) (Homo sapiens, UniProt Q8N884)
Response line: 0

Prompt line: # return inhibition at 20 µM for CC(C)C[C@@H]1NC(=O)[C@H](CCCNC(=N)N)NC(=O)[C@H](CC(C)C)NC(=O)[C@@H]2CCCN2C(=O)[C@@H](Cc2ccccc2)NC(=O)[C@H](C)NC(=O)[C@H](CCCNC(=N)N)NC(=O)[C@H](C(C)C)NC(=O)[C@@H]2CCCN2C(=O)[C@@H](Cc2ccccc2)NC1=O [XQ47, Cyclo (AfPLRLfPVR)] (cyclo(A[dF]PLRL[dF]PVR)) , test system: recombinant human cGAS enzyme (hcGAS-ΔN, residues 147–522) (Homo sapiens, UniProt Q8N884)
Response line: 0

Prompt line: # return inhibition at 20 µM for CC(C)C[C@@H]1NC(=O)[C@H](C)NC(=O)[C@H](C(C)C)NC(=O)[C@H](CCCNC(=N)N)NC(=O)[C@@H](Cc2ccccc2)NC(=O)[C@H](CC(C)C)NC(=O)[C@H](CC(=O)O)NC(=O)[C@H](C(C)C)NC(=O)[C@@H]2CCCN2C(=O)[C@@H](Cc2ccccc2)NC1=O [XQ77, Cyclo (LfPVDLfRVA)] (cyclo(AL[dF]PVDL[dF]RV)) , test system: recombinant human cGAS enzyme (hcGAS-ΔN, residues 147–522) (Homo sapiens, UniProt Q8N884)
Response line: 10

Prompt line: # return inhibition at 20 µM for CC(C)C[C@@H]1NC(=O)[C@H](CCCNC(=N)N)NC(=O)[C@H]([C@@H](C)O)NC(=O)[C@@H]2CCCN2C(=O)[C@@H](Cc2ccccc2)NC(=O)[C@H](CC(C)C)NC(=O)[C@H](CCCNC(=N)N)NC(=O)[C@H](C(C)C)NC(=O)[C@@H]2CCCN2C(=O)[C@@H](Cc2ccccc2)NC1=O [XQ42, Cyclo (LfPTRLfPVR)] (cyclo(L[dF]PTRL[dF]PVR)) , test system: recombinant human cGAS enzyme (hcGAS-ΔN, residues 147–522) (Homo sapiens, UniProt Q8N884)
Response line: 13

====

Some compounds, each annotated with its measured inhibition at 20 µM.
target_or_system: recombinant human cGAS enzyme (hcGAS-ΔN, residues 147–522) (Homo sapiens, UniProt Q8N884)
Construct: N-terminally truncated human cGAS (hcGAS-ΔN, residues 147–522); 6xHis-SUMO (N, cleaved yes); made in house; host or cells: Escherichia coli BL21 (DE3)
experimental_details: RNA-based fluorescent biosensor assay of cGAS activity (2',3'-cGAMP formation), in vitro screening
Assay type: biochemical
recorded_conditions: peptides screened at 20 μM; Supplementary Table 1 / Fig. S5b; read-out: Inhibition %
Square brackets hold non-standard residues; d marks the D form. Peptide text beside a SMILES is read from it. Hyp = O=C(O)[C@@H]1C[C@@H](O)CN1
Express the reported value numerically, then name its unit.

Consider the following illustrative entries.
[[record]]
compound = "CC(C)C[C@@H]1NC(=O)[C@H](CCCNC(=N)N)NC(=O)[C@H](C(C)C)NC(=O)[C@@H]2CCCN2C(=O)[C@@H](Cc2ccccc2)NC(=O)[C@H](CC(C)C)NC(=O)[C@H](CCCNC(=N)N)NC(=O)[C@H](C(C)C)NC(=O)[C@@H]2CCCN2C(=O)[C@@H](Cc2ccccc2)NC1=O [XQ38, Cyclo (LfPVRLfPVR)] (cyclo(L[dF]PVRL[dF]PVR))"
result = "0%"

[[record]]
compound = "CC(C)C[C@@H]1NC(=O)[C@H](CCCNC(=N)N)NC(=O)[C@H](C(C)C)NC(=O)[C@@H]2C[C@@H](O)CN2C(=O)[C@@H](Cc2ccccc2)NC(=O)[C@H](CC(C)C)NC(=O)[C@H](CCCNC(=N)N)NC(=O)[C@H](C(C)C)NC(=O)[C@@H]2C[C@@H](O)CN2C(=O)[C@@H](Cc2ccccc2)NC1=O [XQ12, Cyclo (Lf(Hyp)VRLf(Hyp)VR)] (cyclo([Hyp]VRL[dF][Hyp]VRL[dF]))"
result = "7%"

[[record]]
compound = "N=C(N)NCCC[C@@H]1NC(=O)[C@@H]2CCCN2C(=O)[C@H](Cc2ccccc2)NC(=O)[C@H](CCCNC(=N)N)NC(=O)[C@@H]2CCCN2C(=O)[C@H](Cc2ccccc2)NC1=O [XQ28, Cyclo (RFPRFP)] (cyclo(FPRFPR))"
result = "0%"


Prompt line: # return inhibition at 20 µM for CC(C)C[C@@H]1NC(=O)[C@H](CC(=O)O)NC(=O)[C@H]([C@@H](C)O)NC(=O)[C@@H]2CCCN2C(=O)[C@@H](Cc2ccccc2)NC(=O)[C@H](CC(C)C)NC(=O)[C@H](CCCNC(=N)N)NC(=O)[C@H]([C@@H](C)O)NC(=O)[C@H](C)NC(=O)[C@@H](Cc2ccccc2)NC1=O [XQ59, Cyclo (LfPTDLfATR)] (cyclo(ATRL[dF]PTDL[dF])) , test system: recombinant human cGAS enzyme (hcGAS-ΔN, residues 147–522) (Homo sapiens, UniProt Q8N884)
Response line: 0%

Prompt line: # return inhibition at 20 µM for N=C(N)NCCC[C@@H]1NC(=O)[C@@H]2CCCN2C(=O)[C@@H](Cc2ccccc2)NC(=O)[C@H](CCCNC(=N)N)NC(=O)[C@@H]2CCCN2C(=O)[C@@H](Cc2ccccc2)NC1=O [XQ26, Cyclo (PRfPRf)] (cyclo(PR[dF]PR[dF])) , test system: recombinant human cGAS enzyme (hcGAS-ΔN, residues 147–522) (Homo sapiens, UniProt Q8N884)
Response line: 0%

Prompt line: # return inhibition at 20 µM for N=C(N)NCCC[C@@H]1NC(=O)[C@@H]2CCCN2C(=O)[C@H](Cc2ccccc2)NC(=O)[C@H](CCCNC(=N)N)NC(=O)[C@@H]2CCCN2C(=O)[C@@H](Cc2ccccc2)NC1=O [XQ27, Cyclo (RfPRFP)] (cyclo(FPR[dF]PR)) , test system: recombinant human cGAS enzyme (hcGAS-ΔN, residues 147–522) (Homo sapiens, UniProt Q8N884)
Response line: 0%

Prompt line: # return inhibition at 20 µM for CC(C)[C@@H]1NC(=O)[C@@H]2CCCN2C(=O)[C@@H](Cc2ccccc2)NC(=O)[C@H](C)NC(=O)[C@H](CCCNC(=N)N)NC(=O)[C@H](C(C)C)NC(=O)[C@@H]2CCCN2C(=O)[C@@H](Cc2ccccc2)NC(=O)[C@H](C)NC(=O)[C@H](CCCNC(=N)N)NC1=O [XQ10, Cyclo (AfPVRAfPVR)] (cyclo(A[dF]PVRA[dF]PVR)) , test system: recombinant human cGAS enzyme (hcGAS-ΔN, residues 147–522) (Homo sapiens, UniProt Q8N884)
Response line: 0%

Prompt line: # return inhibition at 20 µM for CC(C)C[C@@H]1NC(=O)[C@H](CCCNC(=N)N)NC(=O)[C@H](C(C)C)NC(=O)[C@@H]2CCCN2C(=O)[C@@H](Cc2ccccc2)NC(=O)[C@H](CC(C)C)NC(=O)[C@H](CCCNC(=N)N)NC(=O)[C@H](C)NC(=O)[C@@H]2CCCN2C(=O)[C@@H](Cc2ccccc2)NC1=O [XQ3, Cyclo (LfPARLfPVR)] (cyclo(ARL[dF]PVRL[dF]P)) , test system: recombinant human cGAS enzyme (hcGAS-ΔN, residues 147–522) (Homo sapiens, UniProt Q8N884)
Response line: 33%
